Molecular target: KRAS G12C (GMPPNP-loaded, Cys-light, amino acids 1-169) and cRAF Ras-binding domain interaction (Homo sapiens, UniProt P01116, C118S/C51S/C80L/G12C)
Construct: truncated version comprising amino acids 1-169
Sequence (P01116 1-169 isoform P01116-2 G12C/C51S/C80L/C118S): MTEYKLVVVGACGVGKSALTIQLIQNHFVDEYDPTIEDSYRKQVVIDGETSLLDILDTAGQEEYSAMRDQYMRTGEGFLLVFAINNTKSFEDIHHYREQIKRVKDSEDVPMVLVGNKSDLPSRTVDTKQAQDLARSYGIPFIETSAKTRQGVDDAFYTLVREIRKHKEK
Test: Inhibition of KRAS G12C and cRAF binding (AlphaScreen)
Settings: KRAS G12C preloaded with GMPPNP, 2 hours compound incubation, room temperature

# compound, IC50
records = [
    ("N#CC[C@H]1CN(c2nc(OC[C@@]34CCCN3C[C@H](F)C4)nc3c(F)c(-c4cccc5ccc(F)c(F)c45)ncc23)CCN1C(=O)/C(F)=C/CN1CCOCC1 [Compound 24]", "100 to 500 nM"),
    ("Cc1nccc(/C=C(\\F)C(=O)N2CCN(c3nc(OCC45CCCN4CCC5)nc4c(F)c(-c5cccc6cccc(Cl)c56)ncc34)C[C@@H]2CC#N)n1 [Compound 2]", "< 10 nM"),
    ("COc1nc(N2CCN(C(=O)/C(F)=C/c3cc(C)nc(C)n3)[C@@H](CC#N)C2)c2cnc(-c3cccc4ccc(F)c(Cl)c34)c(F)c2n1 [Compound 54]", "≥ 500 nM"),
    ("CN1CC[C@@H]1/C=C(\\F)C(=O)N1CC[C@@H](N(C)c2nc(OC[C@@]34CCCN3C[C@H](F)C4)nc3c(F)c(-c4cccc5ccc(F)c(F)c45)ncc23)C1 [Compound 13]", "100 to 500 nM"),
]

* * *

Attribute: pIC50
Biological target: KRAS G12C (GMPPNP-loaded, Cys-light, amino acids 1-169) and cRAF Ras-binding domain interaction (Homo sapiens, UniProt P01116, C118S/C51S/C80L/G12C)
Construct: truncated version comprising amino acids 1-169
Experiment: Inhibition of KRAS G12C and cRAF binding (AlphaScreen)
Conditions: KRAS G12C preloaded with GMPPNP, 2 hours compound incubation, room temperature
Protocol: The AlphaScreen technology was used to determine IC50s for compound inhibition of KRAS G12C (present as the Cys-light (C51S, C80L and C118S), truncated version comprising amino acids 1-169) and cRAF interaction. […] IC50s were determined using nonlinear regression fit of [inhibitor] vs. response (4 parameters). A counter assay was also set up to rule out inhibitors of the AlphaScreen technology itself. […] Samples were read and analyzed as above.
pIC50: −log10 of the molar value.
parameter: pIC50

# compound, result
rows = [
    ("C#Cc1c(F)ccc2cccc(-c3ncc4c(N(C)[C@@H]5CCN(C(=O)/C(F)=C/c6ccnc(C)n6)C5)nc(OC[C@@]56CCCN5C[C@H](F)C6)nc4c3F)c12", "> 8.00"),
    ("Cc1cc(/C=C(\\F)C(=O)N2CC[C@@H](N(C)c3nc(N4CC(N(C)C)C4)nc4c(F)c(-c5cccc(Cl)c5C5CC5)ncc34)C2)nc(C)n1", "6.30 to 7.00"),
    ("CCc1c(F)ccc2cccc(-c3ncc4c(N(C)[C@@H]5CCN(C(=O)/C(F)=C/c6ccnc(C)n6)C5)nc(OC[C@@]56CCCN5C[C@H](F)C6)nc4c3F)c12", "> 8.00"),
    ("N#CC[C@H]1CN(c2nc(OC[C@@]34CCCN3C[C@H](F)C4)nc3c(F)c(-c4cccc5ccc(F)c(Cl)c45)ncc23)CCN1C(=O)/C(F)=C/CN1[C@@H]2CC[C@H]1COC2", "≤ 6.30"),
    ("Cc1cc(/C=C(\\F)C(=O)N2CCN(c3nc(OC[C@@]45CCCN4C[C@H](F)C5)nc4c(F)c(-c5cccc6ccc(F)c(C)c56)ncc34)C[C@@H]2CC#N)nc(C)n1", "> 8.00"),
    ("CN1CC[C@@H]1/C=C(/F)C(=O)N1CC[C@@H](N(C)c2nc(OC[C@@]34CCCN3C[C@H](F)C4)nc3c(F)c(-c4cccc5ccc(F)c(F)c45)ncc23)C1", "7.00 to 8.00"),
    ("Cc1cc(/C=C(\\F)C(=O)N2CCN(c3nc(OC[C@@]45CCCN4C[C@H](F)C5)nc4c(F)c(-c5cccc6ccc(F)c(Cl)c56)ncc34)C[C@@H]2CC#N)nc(C)n1", "> 8.00"),
    ("Cc1nccc(/C=C(\\F)C(=O)N2CC[C@@H](N(C)c3nc(OC[C@@]45CCCN4C[C@H](F)C5)nc4c(F)c(-c5cccc6ccc(F)c(F)c56)ncc34)C2)n1", "> 8.00"),
    ("CCc1c(F)ccc2cccc(-c3ncc4c(N5CCN(C(=O)/C(F)=C/c6ccnc(C)n6)[C@@H](CC#N)C5)nc(OC[C@@]56CCCN5C[C@H](F)C6)nc4c3F)c12", "> 8.00"),
    ("Cc1nccc(/C=C(\\F)C(=O)N2CCN(c3nc(OC[C@@]45CCCN4C[C@H](F)C5)nc4c(F)c(-c5cccc6ccc(F)c(Cl)c56)ncc34)C[C@@H]2CC#N)n1", "> 8.00"),
    ("N#CC[C@H]1CN(c2nc(OC[C@@]34CCCN3C[C@H](F)C4)nc3c(F)c(-c4cccc5cccc(F)c45)ncc23)CCN1C(=O)/C(F)=C/CN1[C@@H]2CC[C@H]1COC2", "≤ 6.30"),
    ("Cc1cc(/C=C(\\F)C(=O)N2CC[C@@H](N(C)c3nc(N4CC(N(C)C)C4)nc4c(F)c(-c5cccc6ccc(F)c(F)c56)ncc34)C2)nc(C)n1", "7.00 to 8.00"),
    ("Cc1nccc(/C=C(\\F)C(=O)N2CC[C@H](O)[C@@H](N(C)c3nc(OC[C@@]45CCCN4C[C@H](F)C5)nc4c(F)c(-c5cccc6cccc(Cl)c56)ncc34)C2)n1", "6.30 to 7.00"),
]
